Collected cytotoxicity at 70.5 h values appear next to each entry.
- TEST_PROTOCOL: Human HepG2 cell viability assay in 384 well format
- Format: toxicity, cell-based
- Set-up: dose 125 nL, time 70.5 hour; concentration not given beside the values
- RUN_CONDITIONS: HepG2 cells, read-out: Inhibition
Entry rule: numbers only, all in %.

Observe how each entry below is paired with its result.
CCCSc1ncc(-c2nccn2CCO)cn1
-12.8
CN(C)c1ccc(C(=O)NCC2(O)CCOCC2)cc1
-8.78
OC(CNCCn1cccn1)c1cccc(Br)c1 (configuration not stated)
-8.75
CN1CCCC(c2nc3c([nH]2)CC(C)(C)CNC3=O)C1 (configuration not stated)
13.5
CC(C)=CCN1CCN(Cc2nccn2C)C(C)C1 (configuration not stated)
22

## Input Looking for the measured cytotoxicity at 70.5 h of Cc1cc(NC(=O)CCN2CCCCC2Cn2cncn2)no1 (configuration not stated) , can you help?
## Output -15.1

## Input Looking for the measured cytotoxicity at 70.5 h of c1csc(CN(Cc2ccsc2)CC2CCCO2)n1 (configuration not stated) , can you help?
## Output -1.84

## Input Looking for the measured cytotoxicity at 70.5 h of O=C(Cc1ccsc1)N1C[C@@H]2OCCN(CC3CC3)[C@@H]2C1 , can you help?
## Output 1.39

## Input Looking for the measured cytotoxicity at 70.5 h of CN1CC(C(=O)NCCc2ccc(Br)cc2F)CC1=O (configuration not stated) , can you help?
## Output -19.2

---

Collected cytotoxicity at 70.5 h values appear next to each entry.
- TEST_PROTOCOL: Human HepG2 cell viability assay in 384 well format
- Type: toxicity, cell-based
- Parameters: dose 125 nL, time 70.5 hour; concentration not given beside the values
- RUN_CONDITIONS: HepG2 cells, read-out: Inhibition
Entry rule: numbers only, all in %.

COCCCNC(=O)Nc1cccc(Cl)c1-n1cccn1
-3.36
O=C(NCc1cccc(F)c1F)c1cc(CN2CCCC(O)C2)on1 (configuration not stated)
4.85
COCC(=O)N1CCCC1c1ccnc(Nc2cnccn2)n1 (configuration not stated)
-7.05
CN(C)c1cc(CNC(=O)c2ccc(O)nc2)ccn1
14.5
Cn1nc(N2CCCC(C(=O)Nc3nc4ccccc4s3)C2)ccc1=O (configuration not stated)
1.88
COc1cc(C(=O)Nc2nc(C)no2)cc(Cl)c1OC
-3.51
Cc1nnc([C@H]2C[C@@H]3CCN(Cc4ccc(C)o4)C[C@H]3O2)[nH]1
-7.28
CN(Cc1ccccc1)CC1(O)CCCN(CCC2CCCCC2)C1=O (configuration not stated)
29.6

## Input Looking for the measured cytotoxicity at 70.5 h of CCn1c(C(=O)N2CCCN(CC(N)=O)CC2)cc2ccccc21 , can you help?
## Output -3.29

## Input Looking for the measured cytotoxicity at 70.5 h of CSCC(C)(O)CNC(=O)c1cc(Br)ccc1Cl (configuration not stated) , can you help?
## Output 16.5

## Input Looking for the measured cytotoxicity at 70.5 h of O=C(Nc1ccc2c(c1)OCO2)N1CCCC1c1ccco1 (configuration not stated) , can you help?
## Output -4.29

## Input Looking for the measured cytotoxicity at 70.5 h of CC(C)NC(=O)c1nc(COc2ccc3c(c2)OCO3)no1 , can you help?
## Output -8.71

## Input Looking for the measured cytotoxicity at 70.5 h of CN(Cc1noc2c1CCCC2)C(=O)C1Cc2ccccc2CN1C (configuration not stated) , can you help?
## Output -6.59
